TEST SUMMARY: Acidic dissociation constant (pKa) determined in 50% aqueous ethanol
Type: physicochemical
RECORDED ENDPOINT: pKa
// print number alone

Asked: Let me know recorded pKa for O=C(O)C(=O)CC(=O)c1ccc(-c2ccccc2)cc1 , thanks.
Given back: 3.34
